# System: HOP-62 NSCLC
# protocol_summary: NCI tumour cell line growth inhibition, 48 h
# reported TGI; entries follow

molecule: CCOc1cc(/C=C/C(=O)C(C(=O)/C=C/c2ccc(OC(=O)CNc3nnc(C)s3)c(OCC)c2)C(=O)CNc2nnc(C)s2)ccc1OC(=O)CNc1nnc(C)s1
assayed_target: HOP-62 NSCLC
TGI: 11.8 µM
//
molecule: C=CC(OC(=O)C(C)C)c1ccc(OC(=O)C(C)C)cc1 (stereo not given)
assayed_target: HOP-62 NSCLC
TGI: 22.6 µM
//
molecule: COC(=O)[C@@H](C)C[C@H](Cc1ccccc1)NC(=O)c1csc([C@@H](C[C@H](C(C)C)N(C)C(=O)C2(NC(=O)[C@H]3CCCCN3C)CCC2)OC(C)=O)n1
assayed_target: HOP-62 NSCLC
TGI: > 25 µM
//
molecule: CCOC(=O)Nc1n[nH]nc1Cl
assayed_target: HOP-62 NSCLC
TGI: > 100 µM
//
molecule: COc1cc2c3c(n(CCCN4CCCNCC4)c(=O)c2cc1OC)-c1cc2c(cc1C3=O)OCO2
assayed_target: HOP-62 NSCLC
TGI: 4.46 µM

query: Return reported TGI; argument: `O=C(CCN1CCC(CCO)CC1)Nc1ccc2c(c1)C(=O)c1ccc(NC(=O)CCN3CCC(CCO)CC3)cc1C2=O`
result: 37.5 µM

query: Return reported TGI; argument: `O=C(Cc1ccc(Nc2ccnc(C(F)(F)F)c2)cc1)N/N=C/c1ccccc1O`
result: > 48.6 µM

query: Return reported TGI; argument: `Cc1cccc2c1c(=O)c1c(O)cc3c(c1n2C)C=CC(C)(C)O3`
result: > 100 µM

Ref: PubChem BioAssay (NCI)
